measurementTarget: T1, His-TrxA-KCTD11^BTB (UniProt Q693B1-2 15-116)
T1 construct: KCTD11, folded BTB region of the long form (isoform 2, UniProt Q693B1-2); residues 15-116 are stated for KCTD11^BTB in the modelling paragraph; numbers count on: the long form (isoform 2); The tags are named and used for detection in the ELISA; also called recombinant KCTD11^BTB; BTB of the tetrameric KCTD11; source: recombinant fusion protein with thioredoxin A, expressed and purified as …
T1 sequence (looked up): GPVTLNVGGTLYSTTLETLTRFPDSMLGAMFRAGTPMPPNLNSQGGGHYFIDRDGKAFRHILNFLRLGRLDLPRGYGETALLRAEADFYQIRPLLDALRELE
protocolSummary: fluorescence polarisation; 2 uM FITC-peptide, KCTD11^BTB added at increasing concentration (0.1-15 uM in the methods; 0.1 nM to 20 uM in the legend); KCTD11^BTB concentration as monomer; triplicates
statedConditions: both partners purified
Bridge positions count the residues as written; N and C are the ends. Square brackets hold non-standard residues; d marks the D form. * marks the point of attachment. FITC = O=C1OC2(c3ccc(O)cc3Oc3cc(O)ccc32)c2ccc(NC(=S)*)cc21; S5 = C=CCCC[C@](C)(N)C(=O)O
metricName: Kd (nM)
State the answer as a number, implicitly in nM.

INSERT INTO results (binder, metricname, unittext, val) VALUES
  ('{FITC}-NSGLSFEELYRNAYTMVLHK-NH2 (Cullin 3 (Cul3), first part of the peptide 49-68; Cullin 3 (Cul3), second part of the peptide 49-68; also called wild-type peptide; source: synthetic peptide (solid phase, Fmoc), RP-HPLC purified) [FITC-Cul3^49-68]', 'Kd', 'nM', 497),
  ('{FITC}-NSGLSFE[S5]LYR[S5]AYTMVLHK-NH2 (staple 8-12) [FITC-Cul3^49-68EN]', 'Kd', 'nM', 620);

Now look at this entry.
Query :: Answer with reported Kd of {FITC}-NSGLSFEE[S5]YRN[S5]YTMVLHK-NH2 (staple 9-13) [FITC-Cul3^49-68LA]
Result :: 305
